Data provenance is patent US8569267B2.

Consider the following compounds; for each one, report its NET pIC50.
assay.system: NET (norepinephrine transporter) (Rattus norvegicus)
Construct: Cortex from rat brain was collected and homogenised; from tissue; host or cells: rat brain cortex
method.summary: In vitro determination of NET reuptake inhibition ([3H]Nixosetine binding, rat brain cortex)
reported.conditions: rat brain cortex
Response field accepts a number only; no unit should be typed.

Please report the measured NET pIC50 for O=C(O)C(=O)O.O[C@@H]1CCN(C[C@H]2C[C@@H]3c4ccccc4Cc4ccc(F)cc4[C@@H]3O2)C1
6.34

Fill in NET pIC50 for record Fc1ccc2c(c1)C1OC(CN3CCN(Cc4ccoc4)CC3)CC1c1ccccc1C2.O=C(O)C(F)(F)F (stereo not shown)
5.88

Annotate the compound O=C(O)C(=O)O.O[C@H]1CCN(C[C@H]2C[C@@H]3c4ccccc4Cc4ccc(F)cc4[C@@H]3O2)C1 with its measured NET pIC50.
5.45

Annotate the compound N#Cc1ccc2c(c1)C1CC(CN3CCC(O)C3)OC1c1cc(F)ccc1S2.O=C(O)C(=O)O (mixture of isomers) with its measured NET pIC50.
5.38

Please list NET pIC50 recorded for the compound Fc1ccc2c(c1)[C@@H]1O[C@@H](CN3CC=CC3)C[C@@H]1c1ccccc1C2.O=C(O)C(=O)O
6.61

###

assay.system: NET (norepinephrine transporter) (Rattus norvegicus, UniProt Q63380)
Construct: Cortex from rat brain was collected and homogenised; from tissue; host or cells: rat brain cortex
Sequence (Q63380 1-617): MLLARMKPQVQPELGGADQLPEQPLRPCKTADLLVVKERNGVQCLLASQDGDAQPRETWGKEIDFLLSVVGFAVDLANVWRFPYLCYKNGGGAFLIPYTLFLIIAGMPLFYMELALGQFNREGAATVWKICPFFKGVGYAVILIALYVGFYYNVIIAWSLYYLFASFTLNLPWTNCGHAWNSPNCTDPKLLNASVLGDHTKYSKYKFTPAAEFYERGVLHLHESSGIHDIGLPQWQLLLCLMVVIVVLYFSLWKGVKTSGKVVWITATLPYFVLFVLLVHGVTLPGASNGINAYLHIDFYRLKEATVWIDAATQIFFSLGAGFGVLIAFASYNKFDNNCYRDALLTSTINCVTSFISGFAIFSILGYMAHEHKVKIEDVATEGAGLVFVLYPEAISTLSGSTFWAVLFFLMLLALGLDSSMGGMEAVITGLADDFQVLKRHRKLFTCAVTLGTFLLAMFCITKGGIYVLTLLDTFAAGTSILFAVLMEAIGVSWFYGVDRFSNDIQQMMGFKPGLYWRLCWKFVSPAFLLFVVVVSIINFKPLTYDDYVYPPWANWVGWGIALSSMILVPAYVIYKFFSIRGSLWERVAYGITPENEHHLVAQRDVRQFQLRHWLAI
method.summary: In vitro determination of NET reuptake inhibition ([3H]Nixosetine binding, rat brain cortex)
reported.conditions: rat brain cortex, read-out: NET pIC50 (converted)
Procedure: In Vitro Determination of NET Reuptake Inhibition Cortex from rat brain was collected and homogenised using an Ultra-Turrax T25 and a Dual homogeniser in ice-cold homogenising buffer containing Tris, NaCl and KCl (50 mM, 120 mM and 5 mM, respectively, pH 7.4) prior to dilution to an appropriate protein concentration optimised for specific and non-specific binding. […] Percentage specific bound and competition binding curves were calculated using S-Plus software (Insightful).
For each entry below, report its IC50 value.
The reply should be a number in µM, with the unit left off.

Entry Fc1ccc2c(c1)C1OC(CN3CCC(NC(=S)Nc4cccnc4)CC3)CC1c1ccccc1C2 (stereo not shown) [Compound 254] needs its IC50 filled in; supply it.
3.47

Give the reported IC50 for this compound. O=C(C1CCN(CC2CC3c4ccccc4Cc4ccc(F)cc4C3O2)CC1)N1CCN(CC=Cc2ccccc2)CC1 (stereo not shown) [Compound 204]
3.47

###

assay.system: NET (norepinephrine transporter) (Rattus norvegicus)
Construct: Cortex from rat brain was collected and homogenised; from tissue; host or cells: rat brain cortex
method.summary: In vitro determination of NET reuptake inhibition ([3H]Nixosetine binding, rat brain cortex)
reported.conditions: rat brain cortex, read-out: NET pIC50 (converted)
Description: In Vitro Determination of NET Reuptake Inhibition Cortex from rat brain was collected and homogenised using an Ultra-Turrax T25 and a Dual homogeniser in ice-cold homogenising buffer containing Tris, NaCl and KCl (50 mM, 120 mM and 5 mM, respectively, pH 7.4) prior to dilution to an appropriate protein concentration optimised for specific and non-specific binding. […] Percentage specific bound and competition binding curves were calculated using S-Plus software (Insightful).
So I've got a bunch of compounds here, and I need their IC50 values.
Answer with a number only, understood to be in µM.

Recall and state the measured IC50 for O=C(Nc1ccccc1Oc1ccccc1)NC1CCN(CC2CC3c4ccccc4Cc4ccc(F)cc4C3O2)CC1 (stereo not drawn) [Compound 250] .
3.89

Please give measured IC50 of the following entry: O=[N+]([O-])c1ccc(CN2CCN(CC3CC4c5ccccc5Cc5ccc(F)cc5C4O3)CC2)cc1 (stereo not drawn) [Compound 73]
3.63

// fetch IC50 given entry CCOC(=O)CNC(=O)NC1CCN(CC2CC3c4ccccc4Cc4ccc(F)cc4C3O2)CC1 (stereo not drawn) [Compound 242]
2.88

Identify measured IC50 corresponding to O=C(OC1CCN(CC2CC3c4ccccc4Cc4ccc(F)cc4C3O2)C1)c1ccc(F)cc1 (mixture of isomers) [Compound 16]
2

Look up and report measured IC50 for this entry: CCCCNC(=S)N1CCN(C[C@H]2C[C@@H]3c4ccccc4Cc4ccc(F)cc4[C@@H]3O2)CC1 [Compound 108]
3.24

Quote IC50 reported for OC1CCN(C[C@H]2C[C@@H]3c4ccccc4Cc4ccc(F)cc4[C@@H]3O2)C1 (stereo partly drawn) [Compound 1] please.
0.479

For the compound CC(=Cc1ccccc1)CN1CCN(CC2CC3c4ccccc4Cc4ccc(F)cc4C3O2)CC1 (stereo not drawn) [Compound 49] , report IC50.
2.57

For the compound O=C(NCc1cccc(I)c1)C1CCN(CC2CC3c4ccccc4Cc4ccc(F)cc4C3O2)CC1 (stereo not drawn) [Compound 196] , report IC50.
2.75

Give a short answer stating reported IC50 for COc1cccc(N2CCN(CC3CC4c5ccccc5Cc5ccc(F)cc5C4O3)CC2)n1 (stereo not drawn) [Compound 118] .
2.82

Input O=C(Nc1ccccc1)NC1CCN(CC2CC3c4ccccc4Cc4ccc(F)cc4C3O2)CC1 (stereo not drawn) [Compound 247] , output reported IC50.
3.55

Please report the measured IC50 for Fc1ccc2c(c1)C1OC(CN3CCN(C(=S)NCc4ccccc4)CC3)CC1c1ccccc1C2 (stereo not drawn) [Compound 113]
2.4

Annotate the compound O=C(NCc1cccc(C(F)(F)F)c1)C1CCN(CC2CC3c4ccccc4Cc4ccc(F)cc4C3O2)CC1 (stereo not drawn) [Compound 182] with its measured IC50.
6.92

Specify measured IC50 for OCC1CCN(C[C@H]2C[C@@H]3c4ccccc4Cc4ccc(F)cc4[C@@H]3O2)C1 (stereo partly drawn) [Compound 5] .
4.07

Let me know recorded IC50 for O=C(NCc1cccs1)C1CCN(CC2CC3c4ccccc4Cc4ccc(F)cc4C3O2)CC1 (stereo not drawn) [Compound 195] , thanks.
7.76

Please list IC50 recorded for the compound CCOC(=O)C1CCCCN1C(=O)C1CCN(CC2CC3c4ccccc4Cc4ccc(F)cc4C3O2)CC1 (mixture of isomers) [Compound 205]
8.51

Indicate the recorded IC50 value for this compound: CN1c2ccccc2[C@H]2C[C@@H](CN3CCC(O)C3)O[C@@H]2c2ccccc21 (relative stereo) [Compound 264]
4.17

Give IC50 for O=C(CSc1ccccc1)NC1CCN(CC2CC3c4ccccc4Cc4ccc(F)cc4C3O2)CC1 (stereo not drawn) [Compound 241]
7.76

Indicate the recorded IC50 value for this compound: O=C(NC1CCN(CC2CC3c4ccccc4Cc4ccc(F)cc4C3O2)CC1)NC1CC1c1ccccc1 (mixture of isomers) [Compound 246]
1.35

Check the records and state IC50 for O=C(OC1CCN(CC2CC3c4ccccc4Cc4ccc(F)cc4C3O2)C1)C1CCCC1 (mixture of isomers) [Compound 14]
1.23

Output measured IC50 for this item: O=[N+]([O-])c1ccc(-c2ccc(CN3CCN(CC4CC5c6ccccc6Cc6ccc(F)cc6C5O4)CC3)o2)cc1 (stereo not drawn) [Compound 63]
0.562

Name the recorded IC50 of the item O=C(NC1CCN(CC2CC3c4ccccc4Cc4ccc(F)cc4C3O2)CC1)c1c(F)c(F)c(F)c(F)c1F (stereo not drawn) [Compound 234] in your answer.
7.24
